# Test target: human mGlu2 receptor (Homo sapiens)
# Construct: expressed in transfected cells; host or cells: CHO cells
# Sequence (Q14416 19-872): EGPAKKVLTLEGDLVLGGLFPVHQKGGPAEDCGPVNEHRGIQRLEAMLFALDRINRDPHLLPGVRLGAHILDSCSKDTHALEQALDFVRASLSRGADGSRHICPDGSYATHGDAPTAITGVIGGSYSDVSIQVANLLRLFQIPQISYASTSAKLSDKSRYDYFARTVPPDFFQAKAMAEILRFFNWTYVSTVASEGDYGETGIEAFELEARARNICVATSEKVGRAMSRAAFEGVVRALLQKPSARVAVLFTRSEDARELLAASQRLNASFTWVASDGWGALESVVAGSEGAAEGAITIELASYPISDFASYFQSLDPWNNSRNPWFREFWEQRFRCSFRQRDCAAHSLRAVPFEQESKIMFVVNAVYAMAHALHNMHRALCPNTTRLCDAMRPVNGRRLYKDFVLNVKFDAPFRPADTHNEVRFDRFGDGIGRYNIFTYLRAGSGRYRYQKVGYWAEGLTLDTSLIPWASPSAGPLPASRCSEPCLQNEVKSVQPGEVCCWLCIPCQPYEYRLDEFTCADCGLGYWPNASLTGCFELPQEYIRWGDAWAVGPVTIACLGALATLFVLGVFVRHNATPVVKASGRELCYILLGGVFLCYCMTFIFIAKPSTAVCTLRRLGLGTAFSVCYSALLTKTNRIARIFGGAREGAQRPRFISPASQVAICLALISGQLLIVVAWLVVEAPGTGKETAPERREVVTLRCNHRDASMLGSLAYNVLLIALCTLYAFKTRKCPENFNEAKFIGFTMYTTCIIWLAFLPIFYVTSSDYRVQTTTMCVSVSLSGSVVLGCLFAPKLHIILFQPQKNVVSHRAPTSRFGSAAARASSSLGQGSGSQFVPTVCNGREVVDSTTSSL
# Measurement protocol: [35S]GTPγS binding assay (mGluR2 negative allosteric modulation, glutamate ~EC80 60 μM)
# Assay type: biochemical
# Test parameters: membranes from CHO cells transfected with human mGlu2 receptor; glutamate ~EC80 (60 μM); pIC50 = −log IC50 (M); read-out: GTPγS-hmGluR2 anGT pIC50 (converted)
Measurement label: IC50 (M)

Completed entries (count: 6):
Asked: What value of IC50 has been recorded for this entry: Cc1cc(N2C[C@H](C)n3ncc(NC(=O)c4ccccc4)c3C2=O)ccc1C(F)(F)F
Given back: 2.29e-09

Asked: Same for Cc1cc(C(=O)Nc2cnn3c2C(=O)N(c2ccc(C(F)(F)F)c(Cl)c2)C[C@@H]3C)c(C)cn1
Given back: 4.07e-09

Asked: Same for C[C@H]1CN(c2ccc(C(F)(F)F)c(C#N)c2)C(=O)c2c(NC(=O)c3ccc(N)nc3)cnn21
Given back: 6.46e-09

Asked: Same for COCc1cncc(C(=O)Nc2cnn3c2C(=O)N(c2ccc(C(F)(F)F)cc2)C[C@@H]3C)c1
Given back: 2.95e-08

Asked: Same for C[C@H]1CN(c2ccc(C(F)(F)F)c(F)c2)C(=O)c2c(NC(=O)c3ccc(N)nc3)cnn21
Given back: 2.63e-09

Asked: Same for C[C@H]1CN(c2ccc(C(F)(F)F)cc2)C(=O)c2c(NC(=O)c3c[nH]cn3)cnn21
Given back: 1.12e-07

A. C[C@H]1CN(c2ccc(SC(F)(F)F)cc2)C(=O)c2c(NC(=O)c3cccnc3)cnn21
B. C[C@H]1CN(c2ccc(C(F)(F)F)cc2)C(=O)c2c(NC(=O)c3cncc(F)n3)cnn21
Asked: Hi there! Just curious which has the higher IC50 between A and B . Refer to your chosen item by its label in the answer.
Given back: A
(A: 5.89e-09 M, B: 3.31e-09 M)

I. CC(=O)Nc1cnn2c1C(=O)N(c1ccc(C(F)(F)F)cc1)C[C@@H]2C
II. C[C@H]1CN(c2ccc(C(F)(F)F)c(Cl)c2)C(=O)c2c(NC(=O)c3cnccn3)cnn21
III. C[C@H]1CN(c2ccc(C(F)(F)F)cc2)C(=O)c2c(NC(=O)c3ccc(F)cn3)cnn21
Asked: // smallest IC50 at index 0, largest at the end Enter labels, ranked according to the request.
Given back: II, III, I

Hello, the source for this data is patent US10519162B2, in case you need it.
